All values here come from ChEMBL document CHEMBL5518206.

test system: MDCK-MDR1; assay: Cytotoxicity against MDCKII-MDR1 cells assessed as cell viability at 100 uM measured by MTT assay; format: toxicity, cell-based, Canis lupus familiaris; settings: dog, mdck-mdr1, 100 µM

>  <compound>
C=C[C@]1(C)C[C@@H](OC(=O)Cn2cc(-c3ccc(Cn4cnc5c(N)nc(N)nc54)cc3)nn2)[C@]2(C)[C@H](C)CC[C@]3(CCC(=O)[C@H]32)[C@@H](C)[C@@H]1O

>  <Activity>
Non-Toxic

$$$$
>  <compound>
C=C[C@]1(C)C[C@@H](OC(=O)Cn2cc(-c3ccc(Cn4cnc5c(N)ncnc54)c(O)c3)nn2)[C@]2(C)[C@H](C)CC[C@]3(CCC(=O)[C@H]32)[C@@H](C)[C@@H]1O

>  <Activity>
Non-Toxic

$$$$
>  <compound>
C=C[C@]1(C)C[C@@H](OC(=O)CS[C@@H]2CC[C@@H](N)C[C@H]2O)[C@]2(C)[C@H](C)CC[C@]3(CCC(=O)[C@H]32)[C@@H](C)[C@@H]1O [LEFAMULIN]

>  <Activity>
Non-Toxic

$$$$
